target: STING (Homo sapiens, UniProt Q86WV6, G230A/H232R/R293Q/R71H); construct: THP-1 Lucia ISG cells (InvivoGen, thpl-isg); host or cells: THP-1 Lucia ISG cells; test: IRF-Lucia Reporter STING Inhibition Assay (THP-1 Lucia ISG cells); format: cell-based; settings: at 25 μm; 1 μM 2,3-cGAMP; 20 hours
Sequence (Q86WV6 whole entry R71H/G230A/H232R/R293Q): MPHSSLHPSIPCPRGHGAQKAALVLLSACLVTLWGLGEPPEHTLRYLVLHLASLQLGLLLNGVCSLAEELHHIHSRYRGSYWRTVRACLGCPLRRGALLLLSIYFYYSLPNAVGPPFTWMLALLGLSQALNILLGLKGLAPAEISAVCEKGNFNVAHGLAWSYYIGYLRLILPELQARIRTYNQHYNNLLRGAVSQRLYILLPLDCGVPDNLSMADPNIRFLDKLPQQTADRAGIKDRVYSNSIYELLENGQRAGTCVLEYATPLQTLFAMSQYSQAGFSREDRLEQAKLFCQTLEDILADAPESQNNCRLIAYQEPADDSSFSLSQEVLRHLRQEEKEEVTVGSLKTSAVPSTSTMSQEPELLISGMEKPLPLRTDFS
Readings of % STING INHIBITION, % at 25 μm for the listed compounds
Quantity measured: % STING INHIBITION, % at 25 μm (%)

mol_smiles=CC(C)(C)c1ccc(-c2ccc(CNc3ccc(O)c(C(=O)O)c3)cc2)cc1 quantity_measured="% STING INHIBITION, % at 25 μm" u=% measured_value=0
mol_smiles=COc1cc(F)ccc1-c1ccc(CNc2ccc(O)c(C(=O)O)c2)cc1 quantity_measured="% STING INHIBITION, % at 25 μm" u=% measured_value=0
mol_smiles=O=C(O)c1cc(NCc2ccc(-c3ccc(O)cc3)cc2)ccc1O quantity_measured="% STING INHIBITION, % at 25 μm" u=% measured_value=0
mol_smiles=O=C(O)c1cc(O)cc(NCc2ccc(-c3ccc(F)cc3)cc2)c1 quantity_measured="% STING INHIBITION, % at 25 μm" u=% measured_value=50
mol_smiles=O=C(O)c1cc(NCc2ccc(-c3ccccc3)cc2)ccc1O quantity_measured="% STING INHIBITION, % at 25 μm" u=% measured_value=28
mol_smiles=COc1ccc(NCc2ccc(-c3ccc(F)cc3)cc2)cc1C#N quantity_measured="% STING INHIBITION, % at 25 μm" u=% measured_value=0
mol_smiles=N#Cc1cc(NCc2ccc(-c3ccc(F)cc3)cc2)ccc1O quantity_measured="% STING INHIBITION, % at 25 μm" u=% measured_value=80
mol_smiles=O=C(O)c1cc(NCc2ccc(-c3ccc(F)c([N+](=O)[O-])c3)cc2)ccc1O quantity_measured="% STING INHIBITION, % at 25 μm" u=% measured_value=39
mol_smiles=COc1ccc(NCc2ccc(-c3ccc(F)cc3)cc2)cc1C(=O)O quantity_measured="% STING INHIBITION, % at 25 μm" u=% measured_value=31
mol_smiles=Cc1cc(-c2ccc(CNc3ccc(O)c(C(=O)O)c3)cc2)ccc1F quantity_measured="% STING INHIBITION, % at 25 μm" u=% measured_value=12
mol_smiles=O=C(O)c1cc(NCc2ccc(-c3ccc(C(F)(F)F)cc3)cc2)ccc1O quantity_measured="% STING INHIBITION, % at 25 μm" u=% measured_value=43
mol_smiles=Cc1cc(F)ccc1-c1ccc(CNc2ccc(O)c(C(=O)O)c2)cc1 quantity_measured="% STING INHIBITION, % at 25 μm" u=% measured_value=47
mol_smiles=CS(=O)(=O)c1ccc(-c2ccc(CNc3ccc(O)c(C(=O)O)c3)cc2)cc1 quantity_measured="% STING INHIBITION, % at 25 μm" u=% measured_value=0

---

target: STING (Homo sapiens, UniProt Q86WV6, G230A/H232R/R293Q/R71H); construct: THP-1 Lucia ISG cells (InvivoGen, thpl-isg); host or cells: THP-1 Lucia ISG cells; assay: IRF-Lucia Reporter STING Inhibition Assay (THP-1 Lucia ISG cells); type: cell-based; details: at 50 μm; 1 μM 2,3-cGAMP; 20 hours
Label 1 when % STING INHIBITION, % at 50 μm is at or above 80%; anything below gets -1.

compound="CS(=O)(=O)c1ccc(-c2ccc(CNc3ccc(O)c(C(=O)O)c3)cc2)cc1 [Example 34]" group_label=-1
compound="N#Cc1cc(NCc2ccc(-c3ccc(F)cc3)cc2)ccc1O [Example 47]" group_label=1
compound="O=C(O)c1cc(NCc2ccc(-c3ccccc3)cc2)ccc1O [Example 37]" group_label=-1
compound="O=C(O)c1cc(NCc2ccc(-c3ccc(F)c([N+](=O)[O-])c3)cc2)ccc1O [Example 38]" group_label=1

Just for reference, patent US20260297016A1 is where these values come from.
